Reference source for all entries: patent US4818761A

Assay Comment: in vitro
Condition Summary: monkey, llc-mk2 cells
// values below are reported CC50

- Molecule: "CCn1c(CNc2ccncc2)nc2cc(C)ccc21 [XL]"
  CC50: "> 100 µg/mL"
- Molecule: "CCc1ccc(-n2c(CNc3ccncc3)nc3ccccc32)cc1 [LXVI]"
  CC50: "> 100 µg/mL"
- Molecule: "Clc1ccc2c(c1)nc(CNc1ccncc1)n2-c1ccccc1 [XLVI]"
  CC50: "> 100 µg/mL"
- Molecule: "CC(=O)OCCOCn1c(CNc2ccncc2)nc2ccccc21 [LV]"
  CC50: "> 100 µg/mL"
- Molecule: "Cc1cc2nc(CNc3ccncc3)[nH]c2cc1Cl [XXIX]"
  CC50: "177 µg/mL"
- Molecule: "Cc1cc2nc(CNc3ccncc3)[nH]c2cc1F [XXX]"
  CC50: "> 100 µg/mL"
- Molecule: "CCCCc1ccc2[nH]c(CNc3ccncc3)nc2c1 [VII]"
  CC50: "56.2 µg/mL"
- Molecule: "Cc1cccc(-n2c(CNc3ccncc3)nc3ccccc32)c1 [LXIII]"
  CC50: "> 100 µg/mL"
- Molecule: "Clc1cc(Cl)c2nc(CNc3ccncc3)[nH]c2c1 [XXVII]"
  CC50: "> 100 µg/mL"
- Molecule: "CCCCCCn1c(CNc2ccncc2)nc2ccccc21 [XVIII]"
  CC50: "707 µg/mL"
- Molecule: "CC(C)n1c(CNc2ccncc2)nc2ccccc21.Cl [XIII, hydrochloride]"
  CC50: "> 100 µg/mL"
- Molecule: "c1ccc2c(c1)nc(CNc1ccncc1)n2-c1nccs1 [LXXIII]"
  CC50: "> 100 µg/mL"
- Molecule: "Cc1cc(Cl)c2nc(CNc3ccncc3)[nH]c2c1 [XXVI]"
  CC50: "1410 µg/mL"
- Molecule: "c1ccc(Cn2c(CNc3ccncc3)nc3ccccc32)cc1 [XXIV]"
  CC50: "> 2000 µg/mL"
- Molecule: "Clc1ccc2nc(CNc3ccncc3)n(-c3ccccc3)c2c1 [XLVII]"
  CC50: "> 300 µg/mL"
- Molecule: "Fc1ccccc1-n1c(CNc2ccncc2)nc2ccccc21 [LVII]"
  CC50: "2000 µg/mL"
- Molecule: "CCc1ccc2c(c1)nc(CNc1ccncc1)n2CC [XLI]"
  CC50: "> 100 µg/mL"
- Molecule: "Cc1ccccc1-n1c(CNc2ccncc2)nc2ccccc21 [LXII]"
  CC50: "> 100 µg/mL"
- Molecule: "c1ccc(-n2c(CNc3ccncc3)nc3ccccc32)cc1 [XXI]"
  CC50: "1410 µg/mL"
- Molecule: "c1ccc(CCCn2c(CNc3ccncc3)nc3ccccc32)cc1 [LVI]"
  CC50: "> 100 µg/mL"
- Molecule: "CCCCn1c(CNc2ccncc2)nc2cc(C)ccc21 [XLII]"
  CC50: "1410 µg/mL"
- Molecule: "Cc1ccc(-n2c(CNc3ccncc3)nc3ccccc32)cc1C [LXX]"
  CC50: "> 100 µg/mL"
- Molecule: "CC(C)(C)C(=O)Cn1c(CNc2ccncc2)nc2ccccc21 [LIII]"
  CC50: "> 2000 µg/mL"
- Molecule: "CCc1ccccc1-n1c(CNc2ccncc2)nc2ccccc21 [LXV]"
  CC50: "> 100 µg/mL"
- Molecule: "CCc1ccc2nc(CNc3ccncc3)n(-c3ccccc3)c2c1 [XLV]"
  CC50: "56.2 µg/mL"
- Molecule: "Brc1ccc(-n2c(CNc3ccncc3)nc3ccccc32)cc1 [LX]"
  CC50: "> 100 µg/mL"
- Molecule: "CCn1c(CNc2ccncc2)nc2ccccc21 [XI]"
  CC50: "5660 µg/mL"
- Molecule: "CCc1cc2[nH]c(CNc3ccncc3)nc2cc1Br [XXXI]"
  CC50: "88.4 µg/mL"

* * *

Tested on: enterovirus type 70 (EV70)
Assay Comment: Inhibition of EV70 plaque formation in LLC-MK2 cells
Assay type: cell-based
Condition Summary: CI = CD50 (LLC-MK2)/IC50 (plaque)
Reported Metric: CI EV70 (C)/(A)

- Smi: "Fc1ccccc1-n1c(CNc2ccncc2)nc2ccccc21"
  Reported Metric: "CI EV70 (C)/(A)"
  Recorded Value: 83
- Smi: "CCCCn1c(CNc2ccncc2)nc2ccccc21"
  Reported Metric: "CI EV70 (C)/(A)"
  Recorded Value: "> 1,429"
- Smi: "Fc1ccc2[nH]c(CNc3ccncc3)nc2c1"
  Reported Metric: "CI EV70 (C)/(A)"
  Recorded Value: 126
- Smi: "CCCCc1ccc2[nH]c(CNc3ccncc3)nc2c1"
  Reported Metric: "CI EV70 (C)/(A)"
  Recorded Value: 3
- Smi: "CCCCCCn1c(CNc2ccncc2)nc2ccccc21"
  Reported Metric: "CI EV70 (C)/(A)"
  Recorded Value: 16
- Smi: "CCc1ccc2nc(CNc3ccncc3)n(-c3ccccc3)c2c1"
  Reported Metric: "CI EV70 (C)/(A)"
  Recorded Value: 35
- Smi: "Cc1ccc(-n2c(CNc3ccncc3)nc3ccccc32)cc1C"
  Reported Metric: "CI EV70 (C)/(A)"
  Recorded Value: "> 15"
- Smi: "CCCc1ccc2[nH]c(CNc3ccncc3)nc2c1"
  Reported Metric: "CI EV70 (C)/(A)"
  Recorded Value: 93
- Smi: "Cn1c(CNc2ccncc2)nc2ccccc21"
  Reported Metric: "CI EV70 (C)/(A)"
  Recorded Value: "> 30"
- Smi: "Fc1cc2nc(CNc3ccncc3)[nH]c2cc1Cl"
  Reported Metric: "CI EV70 (C)/(A)"
  Recorded Value: "> 15"
- Smi: "CCCCn1c(CNc2ccncc2)nc2cc(C)ccc21"
  Reported Metric: "CI EV70 (C)/(A)"
  Recorded Value: 240
- Smi: "Cc1ccc(-n2c(CNc3ccncc3)nc3ccccc32)cc1"
  Reported Metric: "CI EV70 (C)/(A)"
  Recorded Value: "2,719"
- Smi: "CCc1cc2nc(CNc3ccncc3)[nH]c2cc1Cl"
  Reported Metric: "CI EV70 (C)/(A)"
  Recorded Value: 134
- Smi: "Cc1ccc(-n2c(CNc3ccncc3)nc3ccccc32)cc1F"
  Reported Metric: "CI EV70 (C)/(A)"
  Recorded Value: "> 25"
- Smi: "CC(C)CCn1c(CNc2ccncc2)nc2ccccc21.Cl"
  Reported Metric: "CI EV70 (C)/(A)"
  Recorded Value: "1,010"
- Smi: "CC(C)c1ccc2[nH]c(CNc3ccncc3)nc2c1"
  Reported Metric: "CI EV70 (C)/(A)"
  Recorded Value: "> 476"
- Smi: "Cc1cc2nc(CNc3ccncc3)[nH]c2cc1Cl"
  Reported Metric: "CI EV70 (C)/(A)"
  Recorded Value: 118
- Smi: "Cl.Fc1cccc(-n2c(CNc3ccncc3)nc3ccccc32)c1"
  Reported Metric: "CI EV70 (C)/(A)"
  Recorded Value: "> 200"
- Smi: "Fc1ccc(-n2c(CNc3ccncc3)nc3ccccc32)cc1"
  Reported Metric: "CI EV70 (C)/(A)"
  Recorded Value: "> 1,818"
- Smi: "CCCn1c(CNc2ccncc2)nc2ccccc21"
  Reported Metric: "CI EV70 (C)/(A)"
  Recorded Value: "> 465"
- Smi: "CCc1cc2[nH]c(CNc3ccncc3)nc2cc1Br"
  Reported Metric: "CI EV70 (C)/(A)"
  Recorded Value: 74
- Smi: "Clc1ccc2nc(CNc3ccncc3)n(-c3ccccc3)c2c1"
  Reported Metric: "CI EV70 (C)/(A)"
  Recorded Value: "> 130"
- Smi: "CCOc1ccc2[nH]c(CNc3ccncc3)nc2c1"
  Reported Metric: "CI EV70 (C)/(A)"
  Recorded Value: "> 3"
- Smi: "Clc1ccc(-n2c(CNc3ccncc3)nc3ccccc32)cc1"
  Reported Metric: "CI EV70 (C)/(A)"
  Recorded Value: "> 833"

* * *

Assay Comment: in vitro
Condition Summary: monkey, llc-mk2 cells
Reported Metric: CC50

- Smi: "c1ccc(Oc2ccc3[nH]c(CNc4ccncc4)nc3c2)cc1"
  Reported Metric: "CC50"
  Recorded Value: "> 100 µg/mL"
- Smi: "CC=Cn1c(CNc2ccncc2)nc2ccccc21"
  Reported Metric: "CC50"
  Recorded Value: "> 2000 µg/mL"
- Smi: "CCc1ccc2c(c1)nc(CNc1ccncc1)n2-c1ccccc1"
  Reported Metric: "CC50"
  Recorded Value: "> 100 µg/mL"
- Smi: "CCCn1c(CNc2ccncc2)nc2ccccc21"
  Reported Metric: "CC50"
  Recorded Value: "> 2000 µg/mL"
- Smi: "Cc1ccc2c(c1)nc(CNc1ccncc1)n2C"
  Reported Metric: "CC50"
  Recorded Value: "> 100 µg/mL"
- Smi: "COc1ccc(-n2c(CNc3ccncc3)nc3ccccc32)cc1"
  Reported Metric: "CC50"
  Recorded Value: "> 100 µg/mL"
